# key: entry, value: pEC50
Test system: T47D cells expressing mutant PI3Ka (H1047R)
assayNotes: In vitro cell proliferation, T47D cells (CellTiter-Glo)
Format: cell-based
condition: inhibition of proliferation, 72 hours, read-out: Avg T-47D EC50
pEC50: −log10 of the molar value.

Could you tell me which pEC50 is on file for Cc1cc(C(C)Nc2ccccc2C(=O)O)c2cc(N3CCN(C)CC3)n(C)c(=O)c2c1 (single isomer, unassigned) [Example 12] ? < 4.82

For Cc1cc(C(C)Nc2ccccc2C(=O)O)c2cc(N3CC4CCC(C4)C3)n(C)c(=O)c2c1 (single isomer, unassigned) [Example 11] then? 6.30 to 9.00

Now consider Cc1cc([C@@H](C)Nc2cccc(F)c2C(=O)O)c2cc(-c3cnc(C(F)(F)F)nc3)n(C)c(=O)c2c1 [Example 371] and answer again. 5.70 to 6.30

Further, for CC(Nc1ccccc1C(=O)O)c1cc(F)cc2c(=O)n(C)c(-c3cnc(OC4CC4)c(F)c3)c(F)c12 (stereo not drawn) [Example 565] ? 6.30 to 9.00

Cc1cc(C(C)Nc2ccccc2C(=O)O)c2cc(-c3ccc(N4CCOCC4)nc3)n(C)c(=O)c2c1 (single isomer, unassigned) [Example 487] , same question. 6.30 to 9.00

In the following, a different compound is considered.
# query: pEC50 of entry Cc1cc(C(C)Nc2ccccc2C(=O)O)c2cc(N3CCN4CCC[C@H]4C3)n(C)c(=O)c2c1 (single isomer, unassigned) [Example 139] 5.70 to 6.30
